Just for reference, ChEMBL document CHEMBL1201862 is where these values come from.

Listed here are compounds together with their documented EC50.
Molecular target: Zinc finger protein mex-5 (Caenorhabditis elegans, UniProt Q9XUB2)
Sequence (Q9XUB2 whole entry): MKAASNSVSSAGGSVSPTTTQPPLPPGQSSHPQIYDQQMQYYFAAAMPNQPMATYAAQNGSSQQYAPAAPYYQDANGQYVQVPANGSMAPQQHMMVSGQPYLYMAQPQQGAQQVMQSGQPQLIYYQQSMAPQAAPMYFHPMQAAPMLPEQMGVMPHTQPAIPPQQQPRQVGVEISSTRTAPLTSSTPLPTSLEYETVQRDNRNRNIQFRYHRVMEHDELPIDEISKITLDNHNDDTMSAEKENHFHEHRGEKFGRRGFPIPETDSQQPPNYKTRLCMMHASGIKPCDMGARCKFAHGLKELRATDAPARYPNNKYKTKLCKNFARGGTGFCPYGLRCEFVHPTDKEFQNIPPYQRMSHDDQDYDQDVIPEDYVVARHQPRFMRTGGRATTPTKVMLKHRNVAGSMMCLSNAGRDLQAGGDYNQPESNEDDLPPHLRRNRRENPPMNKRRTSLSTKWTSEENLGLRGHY
Experiment: MEX-5/TCR-2 RNA interaction inhibitors, dose response, biochemical, C. elegans, fluorescence polarization (AID 1960)
The source made the active and inactive calls. No stated cut-off is given here; in the data, actives have a measured EC50 and inactives only a lower limit.

For orientation, consider the following solved cases.
smiles-notation	meas-value
CCOc1cc(C(c2c(C)[nH][nH]c2=O)c2c(C)[nH][nH]c2=O)cc([N+](=O)[O-])c1O	2.07 µM (active)
O=C(NNC(=S)NC(=O)c1ccccc1[N+](=O)[O-])c1ccccc1O	32.2 µM (active)
Cc1ccc(C)c(N2CCN(C(=O)c3cc4ccccn4n3)CC2)c1	33.7 µM (active)

Note down EC50 recorded for `CCN(CC)C(=O)Cn1cc(/C=C2\C(=O)NC(=O)N(c3ccccc3F)C2=O)c2ccccc21` > 300 µM (not active)
